System: S49
Test: Effective concentration for growth inhibition of S49 cells in culture in the presence of 10 uM of dUrd
Type: functional, cell-based
Settings: Mus musculus
pEC50: −log10 of the molar value.
Property Measured: pEC50

1. O=c1[nH]c(=O)n([C@H]2C[C@H](O)[C@@H](CO)O2)cc1[N+](=O)[O-] 7.22
